- Tested on: Mycobacterium tuberculosis
- assayName: Antimicrobial activity against non replicating persistence Mycobacterium tuberculosis H37Rv in anaerobic condition assessed as relative light unit after 11 days by LORA assay
- Type: functional
- protocolConditions: 264 h
quantityKind: MIC

molecule	MIC
CCC[C@@H]1C[C@@H](C(=O)N[C@@H]([C@H]2O[C@H](SC)[C@H](O)[C@@H](O)[C@H]2O)[C@@H](C)O)N(C)C1	> 128 µM
CO[C@H]1/C=C/O[C@@]2(C)Oc3c(C)c(O)c4c(c3C2=O)C2=NC3(CCN(CC(C)C)CC3)NC2=C(NC(=O)/C(C)=C\C=C\[C@H](C)[C@H](O)[C@@H](C)[C@@H](O)[C@@H](C)[C@H](OC(C)=O)[C@@H]1C)C4=O	≤ 0.5 µM
CCC[C@@H]1C[C@@H](C(=O)N[C@H](C(C)Cl)[C@H]2O[C@H](SC)[C@H](O)[C@@H](O)[C@H]2O)N(C)C1 (single isomer, unassigned)	> 128 µM

INPUT: Entry under review: CC(=O)Nc1ccc(/C=N/NC(N)=S)cc1 . Reported MIC?
OUTPUT: > 128 µM

INPUT: Could you tell me which MIC is on file for Cc1ncc([N+](=O)[O-])n1CCO ?
OUTPUT: > 128 µM

INPUT: I am curious: what MIC value has been reported for CC[C@@H](CO)NCCN[C@@H](CC)CO ?
OUTPUT: > 128 µM

INPUT: I am curious: what MIC value has been reported for Nc1ccc(C(=O)O)c(O)c1 ?
OUTPUT: > 128 µM

INPUT: What does the data say about its MIC? Entry: CN[C@H](CC(C)C)C(=O)N[C@H]1C(=O)N[C@@H](CC(N)=O)C(=O)N[C@H]2C(=O)N[C@H]3C(=O)N[C@H](C(=O)N[C@H](C(=O)O)c4cc(O)cc(O)c4-c4cc3ccc4O)[C@H](O)c3ccc(c(Cl)c3)Oc3cc2cc(c3O[C@@H]2O[C@H](CO)[C@@H](O)[C@H](O)[C@H]2O[C@H]2C[C@](C)(N)[C@H](O)[C@H](C)O2)Oc2ccc(cc2Cl)[C@H]1O
OUTPUT: > 128 µM

INPUT: Fill blank: measured MIC of the molecule NCC[C@H](O)C(=O)N[C@@H]1C[C@H](N)[C@@H](O[C@H]2O[C@H](CN)[C@@H](O)[C@H](O)[C@H]2O)[C@H](O)[C@H]1O[C@H]1O[C@H](CO)[C@@H](O)[C@H](N)[C@H]1O is ____.
OUTPUT: ≤ 0.5 µM

INPUT: MIC for C[C@]1(Cn2ccnn2)[C@H](C(=O)O)N2C(=O)C[C@H]2S1(=O)=O ?
OUTPUT: > 128 µM

INPUT: Field request: MIC | item: CC1COc2c(N3CCN(C)CC3)c(F)cc3c(=O)c(C(=O)O)cn1c23 (stereo not given)
OUTPUT: > 128 µM

INPUT: For the molecule O=C(O)c1cn(C2CC2)c2cc(N3CCNCC3)c(F)cc2c1=O , what MIC is on record?
OUTPUT: > 128 µM

INPUT: Which MIC value belongs to COc1cc(Cc2cnc(N)nc2N)cc(OC)c1OC ?
OUTPUT: > 128 µM

INPUT: Which MIC reading was recorded for the molecule NNC(=O)c1ccncc1 ?
OUTPUT: > 128 µM

INPUT: Sample O=C(Nc1ccc([N+](=O)[O-])cc1Cl)c1cc(Cl)ccc1O [NICLOSAMIDE] — what was its MIC?
OUTPUT: ≤ 0.5 µM
